Test: MRT (0 to t) in Sprague-Dawley rat at 10 mg/kg, po measured upto 24 hrs by LC-MS/MS analysis
Format: ADME, organism-based
Conditions: in vivo
Assay metric: MRT last at 24 h
Could you write the number and then its unit?

For the compound shown here, CCc1cccc(CC)c1N1CCn2cc(-c3nc(Nc4ccc(N5CCN(C(C)=O)CC5)cc4OC)nc4[nH]ncc34)cc2C1=O , give the reported MRT last at 24 h.
1.11 h

###

Assay: MRT (0 to t) in Sprague-Dawley rat at 2 mg/kg, iv measured upto 24 hrs by LC-MS/MS analysis
Assay type: ADME, organism-based
Details: in vivo
Assay metric: MRT last at 24 h (min)
Expressed in min, but write only the number.

Reported MRT last at 24 h, compound CCc1cccc(CC)c1N1CCn2cc(-c3nc(Nc4ccc(N5CCN(C(C)=O)CC5)cc4OC)nc4[nH]ncc34)cc2C1=O : ____
20.4
